Molecular target: T1, human vascular endothelial growth factor receptor-2 Fc chimera (KDR-Fc) (human, UniProt P35968 20-764)
T1 construct: range 1-764; also called human VEGFR-2; not shown: human IgG1 Fc
T1 sequence (P35968 20-764 limits assumed, change not shown, form in doubt): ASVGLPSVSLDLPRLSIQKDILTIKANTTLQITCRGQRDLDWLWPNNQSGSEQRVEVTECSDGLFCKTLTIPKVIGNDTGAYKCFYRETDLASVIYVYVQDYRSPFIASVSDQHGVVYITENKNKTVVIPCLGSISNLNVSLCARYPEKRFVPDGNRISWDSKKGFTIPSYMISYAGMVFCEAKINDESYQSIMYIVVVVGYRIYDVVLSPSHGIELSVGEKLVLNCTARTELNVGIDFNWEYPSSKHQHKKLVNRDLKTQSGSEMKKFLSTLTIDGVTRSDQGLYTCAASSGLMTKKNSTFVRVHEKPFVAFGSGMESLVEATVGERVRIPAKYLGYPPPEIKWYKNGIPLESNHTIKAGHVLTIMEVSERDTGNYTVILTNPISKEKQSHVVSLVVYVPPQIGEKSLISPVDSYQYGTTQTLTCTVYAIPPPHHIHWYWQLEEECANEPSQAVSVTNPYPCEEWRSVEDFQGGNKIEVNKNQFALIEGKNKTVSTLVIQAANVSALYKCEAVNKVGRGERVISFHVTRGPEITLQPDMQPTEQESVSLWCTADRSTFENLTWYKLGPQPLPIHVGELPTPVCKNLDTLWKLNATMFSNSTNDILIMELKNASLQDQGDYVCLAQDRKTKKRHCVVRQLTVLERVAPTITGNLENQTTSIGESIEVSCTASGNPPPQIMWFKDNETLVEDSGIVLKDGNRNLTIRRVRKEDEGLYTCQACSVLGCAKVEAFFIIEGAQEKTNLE
Assay: radioactive equilibrium binding, 1 nM KDR-Fc, % of input
measured_endpoint: Binding to 1 nM KDR, % (%)

1: 3C7 PR3 (designed binder) EVVAATPTSLLISWRHPHFPTRYYRITYGETGGNSPVQEFTVPLQPPTATISGLKPGVDYTITVYAVTRGLNDGELLTPISINYRT
2: 4′B3 PR4 (designed binder) EVVAATPTSLLISWRHPHFPTRYYRITYGETGGNSPVQEFTVPLQPPTATISGLKPGVDYTITVYAVTMAQNNRELLTPISINYRT
3: 4′C9 PR4 (designed binder) EVVAATPTSLLISWRHPHFPTRYYRITYGETGGNSPVQEFTVPLQPPTATISGLKPGVDYTITVYAVTLGPNDHELMTPISINYRT
Q: Descending by Binding to 1 nM KDR, % please, for everything listed above. State the ranking by listing the labels in the requested order.
Result: 2, 3, 1
